Assign Viability (%) (Relative to DMSO) to each entry below.
- Test system: U-937
- Method Notes: Viability of sensitive cell line relative to DMSO
- Format: cell-based
Give the value, in units of %, as a plain number.

Problem: Suppose we examine the compound CN(Cc1ccccc1)C1CC(=O)NC1=O (stereo not shown) ; what Viability (%) (Relative to DMSO) value has been reported?
Solution: 98.5

Problem: Recorded Viability (%) (Relative to DMSO) for CNc1ccccc1C(=O)NCCNC1CC(=O)NC1=O (stereo not shown) , please?
Solution: 6.3

Problem: // query Viability (%) (Relative to DMSO) value for entry `Cn1c(=O)ccn(CCCCc2ccccc2)c1=O`
Solution: 50.5

Problem: Sample O=C1CCC(NCCc2ccccn2)C(=O)N1 (stereo not shown) — what was its Viability (%) (Relative to DMSO)?
Solution: 58.4
